# Assay text: recombinant barcode read abundance after kanamycin selection (control-corrected) (log10(CPM+1)); higher = more efficient recombination; sequences stand for … in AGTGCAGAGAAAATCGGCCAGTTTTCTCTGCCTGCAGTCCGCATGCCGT…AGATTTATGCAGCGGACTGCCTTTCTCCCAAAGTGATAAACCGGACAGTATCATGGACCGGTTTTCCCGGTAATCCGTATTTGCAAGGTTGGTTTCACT; site = the 11-nt target
Readout: recombinant barcode read abundance (log10)
Number only, please.

# annotated cases, reported recombinant barcode read abundance (log10) shown
Seq: CGAGGGACTTGGGTTCTAACCTGTTGCCT (site CGAGGGACTAG)
Meas value: 1.81

Seq: TCTAGTCCTTGGGTTCTAACCTGTTGCCT (site TCTAGACCTTG)
Meas value: 0.418

Seq: AATTGGCCTTGGGTTCTAACCTGTTGCTT (site GATAGGCCTAA)
Meas value: 0.37

Seq: GCCACGCCTTGGGTTCTAACCTGTTGCAG (site GCCTCGCCTCT)
Meas value: 0.389

Task: Which recombinant barcode read abundance (log10) value belongs to ATAATAGCTTGGGTTCTAACCTGTTGCCT (site ATAATAGCTAG) ?
Output: 1.63

Task: I have this sequence here, CAATGGCCTTGGGTTCTAACCTGTTGCCT (site CAAAGGCCTAG) , and I need its recorded recombinant barcode read abundance (log10).
Output: 0.126

Task: What value of recombinant barcode read abundance (log10) has been reported for the following sequence? TATTGGACTTGGGTTCTAACCTGTTGCTT (site AATTGGACTAA)
Output: 0.0764

###

# Assay text: recombinant barcode read abundance after kanamycin selection (control-corrected) (log10(CPM+1)); higher = more efficient recombination; sequences stand for … in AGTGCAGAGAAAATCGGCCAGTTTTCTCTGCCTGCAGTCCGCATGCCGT…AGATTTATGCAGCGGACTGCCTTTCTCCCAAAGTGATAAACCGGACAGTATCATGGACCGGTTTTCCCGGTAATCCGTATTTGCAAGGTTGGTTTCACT; site = the 11-nt target
Readout: recombinant barcode read abundance (log10)
The reply should be a number, written without any unit.

Worked cases, recombinant barcode read abundance (log10) given:
Seq: CTCTCTTCTTGGGTTCTAACCTGTTGCCT (site CTCTCTTCTAG)
Meas value: 0.114

Seq: GATCAATCTTGGGTTCTAACCTGTTGCCT (site GAGCAAACTAG)
Meas value: 0.0249

Seq: TACCTACCTTGGGTTCTAACCTGTTGCGA (site ATAACTACTAA)
Meas value: 0.0536

Seq: TTCTATGCTTGGGTTCTAACCTGTTGCCT (site TTCTATGCTAG)
Meas value: 0.187

Seq: CTCCGCCCTTGGGTTCTAACCTGTTGCTT (site CTCCGACCTAA)
Meas value: 0.121

Task: Which recombinant barcode read abundance (log10) value belongs to CTAAGTGCTTGGGTTCTAACCTGTTGCCA (site CTAAGTGCTTG) ?
Output: 0.35

Task: # get_value(readout='recombinant barcode read abundance (log10)', item= AGTATCGCTTGGGTTCTAACCTGTTGCGG (site AGTCTCGCTCC) )
Output: 0.11

Task: // returns reported recombinant barcode read abundance (log10) for input AGGCGTCCTTGGGTTCTAACCTGTTGCCT (site AGGCGTCCTAG)
Output: 1.44

Task: Entry ACCTTGCCTTGGGTTCTAACCTGTTGCCT (site ACCTTGCCTAG) has what recombinant barcode read abundance (log10)?
Output: 0.012

Task: What value of measured recombinant barcode read abundance (log10) is listed for CTTACGGCTTGGGTTCTAACCTGTTGCCT (site CTTACTGCTAG) ?
Output: 0.262

###

# Assay text: recombinant UMI read abundance after kanamycin selection (control-corrected) (log10(CPM+1)); higher = more efficient recombination; extreme values may be limits of the assay; sequences stand for … in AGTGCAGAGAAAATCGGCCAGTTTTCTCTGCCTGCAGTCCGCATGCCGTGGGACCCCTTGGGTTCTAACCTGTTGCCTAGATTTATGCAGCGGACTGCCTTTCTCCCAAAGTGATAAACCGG…AGGTTGGTTTCACT; site = the 11-nt donor
Classify by measured recombinant UMI read abundance (log10): 1.0 if it is equal to or exceeds 0.009, 0.0 if it is smaller.

Seq: CAGCCTTCATGGACCGGTTTTCCCGGTAATCCGTATTTGGT (site CAGCCTTCTAC)
Class: 1.0

Seq: TGTACACCATGGACCGGTTTTCCCGGTAATCCGTATTTGAA (site TGTACACCTTT)
Class: 1.0

Seq: CATAGCCCATGGACCGGTTTTCCCGGTAATCCGTATTTGAG (site CATAGCCCTCT)
Class: 1.0

Seq: TTCGGTTCATGGACCGGTTTTCCCGGTAATCCGTATTTGAC (site TTCGGTTCTGT)
Class: 0.0

Seq: TAGGAATCATGGACCGGTTTTCCCGGTAATCCGTATTTGCC (site TAGGAATCTAG)
Class: 1.0

Task: Evaluate CCCATACCATGGACCGGTTTTCCCGGTAATCCGTATTTGTC (site CCCATACCTGA) : recombinant UMI read abundance (log10) at minimum 0.009?
Output: 0.0

Task: Decide: recombinant UMI read abundance (log10) of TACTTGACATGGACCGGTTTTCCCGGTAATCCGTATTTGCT (site TGCTTGACTAG) >= 0.009?
Output: 1.0

Task: Check if recombinant UMI read abundance (log10) >= 0.009 (inclusive). Item: CCTTATACATGGACCGGTTTTCCCGGTAATCCGTATTTGGC (site CCTAATACTGC)
Output: 0.0

Task: In plain terms: is recorded recombinant UMI read abundance (log10) at least 0.009 for TGCATATCATGGACCGGTTTTCCCGGTAATCCGTATTTGAC (site TGCATATCTGT) ?
Output: 1.0

Task: Assess whether reported recombinant UMI read abundance (log10) for GCTAGTGCATGGACCGGTTTTCCCGGTAATCCGTATTTGGT (site TCTAGTGCTAC) sits at 0.009 or higher.
Output: 1.0

Task: In plain terms: is recorded recombinant UMI read abundance (log10) at least 0.009 for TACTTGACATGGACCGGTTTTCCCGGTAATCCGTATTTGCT (site TAGTTGACTAG) ?
Output: 0.0

Task: State whether the measured recombinant UMI read abundance (log10) reaches 0.009, counting equality as reaching it, for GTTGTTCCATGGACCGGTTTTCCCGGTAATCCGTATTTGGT (site GTTGTTACTAC)
Output: 0.0

Task: Assess whether reported recombinant UMI read abundance (log10) for CCTGGTCCATGGACCGGTTTTCCCGGTAATCCGTATTTGCA (site CCCGGTCCTTG) sits at 0.009 or higher.
Output: 0.0

Task: Could you please find out whether TCCATCGCATGGACCGGTTTTCCCGGTAATCCGTATTTGCG (site TCCATCGCTCG) has recombinant UMI read abundance (log10) that meets 0.009 or exceeds it?
Output: 0.0

Task: Evaluate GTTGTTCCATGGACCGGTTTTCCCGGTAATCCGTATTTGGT (site GTTGGTCCTAC) : recombinant UMI read abundance (log10) at minimum 0.009?
Output: 0.0

Task: Please check the record TCCGGTCCATGGACCGGTTTTCCCGGTAATCCGTATTTGCA (site ACCGGTCCTTG) and state if its recombinant UMI read abundance (log10) is at or above 0.009.
Output: 0.0

Task: Check if recombinant UMI read abundance (log10) >= 0.009 (inclusive). Item: CGATCACCATGGACCGGTTTTCCCGGTAATCCGTATTTGCT (site CGATCATCTAG)
Output: 0.0

###

# Assay text: recombinant barcode read abundance after kanamycin selection (control-corrected) (log10(CPM+1)); higher = more efficient recombination; sequences stand for … in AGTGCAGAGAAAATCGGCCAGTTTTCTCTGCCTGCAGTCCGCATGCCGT…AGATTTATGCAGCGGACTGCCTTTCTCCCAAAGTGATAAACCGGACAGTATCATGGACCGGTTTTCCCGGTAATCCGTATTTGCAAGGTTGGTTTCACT; site = the 11-nt target
Cut-off 0.9 on recombinant barcode read abundance (log10), inclusive. At or above means label 1; below means label 0.

Answered cases to consult:
Seq: AGGCGCCCTTGGGTTCTAACCTGTTGCAT (site AGGCGCCCTCT)
Class: label 0

Seq: AATAGGACTTGGGTTCTAACCTGTTGCGC (site AATAGGACTGC)
Class: label 1

Seq: ACTTGAACTTGGGTTCTAACCTGTTGCCT (site ACCTGAACTAG)
Class: label 0

Seq: GTCGACGCTTGGGTTCTAACCTGTTGCCT (site GTCGACGCTAG)
Class: label 0

Seq: CGTGGTCCTTGGGTTCTAACCTGTTGCAT (site CGTGGTCCTAT)
Class: label 1

Task: Does the reported recombinant barcode read abundance (log10) for CGTTCCTCTTGGGTTCTAACCTGTTGCCT (site CCTTCCTCTAG) fall at or above the 0.9 mark?
Output: label 0

Task: Decide: recombinant barcode read abundance (log10) of AAGTCCACTTGGGTTCTAACCTGTTGCTT (site AAGTCCACTAA) >= 0.9?
Output: label 0

Task: Determine whether this sequence has recombinant barcode read abundance (log10) no lower than 0.9: GATAGTGCTTGGGTTCTAACCTGTTGCCT (site GATAGTACTAG)
Output: label 0
